System: U251 CNS
assay_summary: NCI-60 one-dose screen, 48 h
test_settings: 10 µM unless noted
The panel holds about 83,000 compounds, 20% with a hit somewhere; the sample as a whole holds those more often. The source made the active and inactive calls. The calls were made as follows: active = growth percent below 10; inactive = the rest.
API: response.call in active, inactive

Solved cases below.
S=C(NCCc1ccccc1)Nc1ccc(OCc2nc3ccc(Cl)cc3[nH]2)cc1 :: inactive
O=C1CCC(N2C(=O)c3cccc(NCCCCCC(=O)N4CCN(c5ccc6nc7c(nc6c5C(F)(F)F)C(=O)c5ncccc5C7=O)CC4)c3C2=O)C(=O)N1 (stereo not given) :: active
NS(=O)(=O)c1ccc(Nc2nc(N/N=C/c3cc(Br)c(O)c(Br)c3)nc(Nc3ccccc3)n2)cc1 :: inactive
Cc1ccc(O)cc1Nc1nc(SCCN2CCOCC2)nc2c1cnn2CC(Cl)c1ccc(Br)cc1 (stereo not given) :: inactive
C=CCSc1nnc(-c2ccc(-c3nc4ccc(Cl)cc4[nH]3)cc2)o1 :: inactive

Lab log entry: `Nc1nnc(CS(=O)(=O)c2ccccc2)s1` — outcome as called in the assay? inactive

Assay result, entry `CC(=O)C[n+]1cccc2c3ccccc3ccc21` — outcome? inactive

Returns: the outcome recorded for `O=C(NNC(=O)c1ccc(OCc2nc3ccc(Cl)cc3[nH]2)cc1)Nc1ccc(Cl)c(C(F)(F)F)c1` in this assay. inactive

Which result was noted for this compound in the test: CC1CCc2c(sc3nc(SCC(=O)c4cccc(Br)c4)n(-c4ccccc4)c(=O)c23)C1 (stereo not given) active

Identify the outcome logged in this assay for the compound shown: `O=C(Cn1c(-c2ccccc2)nc2ccccc21)N=Nc1c(O)[nH]c2ccc(Br)cc12` active
